Source of measurements: PubChem BioAssay (NCI)

- System: MCF7 breast
- Measurement Notes: NCI-60 one-dose screen, 48 h (100 = growth as untreated, 0 = no growth, -100 = all killed)
- Condition Description: 10 µM
This is part of a sample that, as a whole, favours compounds with a hit. Of some 83,000 tested, about 20% had one in any assay.
Label scheme for growth: lower than 50% is Not met, 50% and above is Met.

{"Smiles String": "O=c1[nH]c2ccccc2cc1CSc1ccc(Nc2nccc(-c3ccc(Cl)cc3)n2)cc1", "Qualitative Label": "Not met"}
{"Smiles String": "CC(=O)Nc1ccc(-c2cn(-c3cccc(C(=O)Nc4ccc(F)c(C(F)(F)F)c4)c3)nn2)cn1", "Qualitative Label": "Not met"}
{"Smiles String": "Cc1ccc(CSc2nc(-c3ccc(F)cc3)c(C#N)c(=O)[nH]2)cc1", "Qualitative Label": "Met"}
{"Smiles String": "COc1ccc(C(=O)NC(=S)N2CCN(c3ncnc4c3cnn4-c3ccccc3)CC2)cc1", "Qualitative Label": "Met"}
{"Smiles String": "O=S(=O)(Nc1ncccn1)c1ccc(-n2c(-c3ccccc3)nc(-c3ccccc3)c2-c2ccccc2)cc1", "Qualitative Label": "Met"}
{"Smiles String": "COc1ccc(C=CC(=O)c2ccc(-n3c(C)nc4c(cnn4-c4ccccc4)c3=O)cc2)cc1", "Qualitative Label": "Not met"}

###

- Test system: UACC-257 melanoma
- Measurement Notes: NCI-60 one-dose screen, 48 h (100 = growth as untreated, 0 = no growth, -100 = all killed)
- Condition Description: 10 µM
This is part of a sample that, as a whole, favours compounds with a hit. Of some 83,000 tested, about 20% had one in any assay.
Examples of compounds with documented growth follow.

{"Compound": "NC1=NC(c2ccccc2Cl)N=C(Nc2nn[nH]n2)N1 (stereo not drawn)", "growth (%)": 106}
{"Compound": "O=C1Nc2ccc(Cl)cc2/C1=C/c1cccc(OCc2ccccc2)c1", "growth (%)": 45.8}
{"Compound": "O=C(NO)c1ccc(CN2CCN(c3nc(-c4ccccc4)c4ccccc4n3)CC2)cc1", "growth (%)": 43.3}
{"Compound": "COc1cccc(/C=N/NC(=O)c2ccc3nc(-c4ccc(Cl)cc4)[nH]c3c2)c1O", "growth (%)": -83.8}
{"Compound": "O=C(CS(=O)(=O)c1oc(-c2ccc(Cl)cc2)nc1S(=O)(=O)c1ccccc1)N1CCCC1", "growth (%)": -77.8}
{"Compound": "COc1ccc(NC(=O)Nc2ccc(OCC(=O)N=Nc3c(O)[nH]c4ccc([N+](=O)[O-])cc34)cc2)cc1", "growth (%)": 107}
{"Compound": "Cc1cc(C)nc(NS(=O)(=O)c2ccc(N/C(N)=N/c3nccc(-c4ccccc4)n3)cc2)n1", "growth (%)": 94}
{"Compound": "O=C(CNc1nc(-c2ccccc2)cs1)Nc1cccc([N+](=O)[O-])c1", "growth (%)": -71.5}
{"Compound": "Cc1cc(C)nc(NS(=O)(=O)c2ccc(N/C(N)=N/c3nccc(-c4cccs4)n3)cc2)n1", "growth (%)": 111}
{"Compound": "CCCCSc1nc(Nc2ccc(/C(C)=N/NC(N)=S)cc2)c(C#N)c(-c2ccc(OC)cc2)n1", "growth (%)": 74.9}
{"Compound": "CCOC(=O)CNC(=O)CN(Cc1ccccc1)C(=O)[C@@]1(C)CCC[C@]2(C)[C@H]3CC4C(C(C)C)=C[C@]3(CC[C@H]21)[C@@H]1C(=O)CCC(=O)[C@H]41", "growth (%)": 70.2}
{"Compound": "CC1CC(c2ccc(N(C)C)cc2)=NN1c1nc(O)c(C2=c3cc(Br)ccc3=NC2=O)s1 (stereo not drawn)", "growth (%)": 91.2}
{"Compound": "CCCCOc1ccc(Nc2nc3ccccc3nc2Nc2ccc(OCCCC)cc2)cc1", "growth (%)": 97.3}
{"Compound": "CCOC(=O)C(Cc1ccccc1)N1C(=O)/C(=C/N2N=C(c3ccc(OC)cc3)CC2c2ccc3ccccc3c2)SC1=S (stereo not drawn)", "growth (%)": 1.02}
{"Compound": "COc1ccc(-c2nc(S(=O)(=O)c3ccc(C)cc3)c(S(=O)(=O)CC(=O)N(C)Cc3ccccc3)o2)cc1", "growth (%)": 67.9}
{"Compound": "O=C(CSc1nnc(-c2ccc3nc(-c4ccccc4)[nH]c3c2)o1)Nc1ccc(Cl)cc1", "growth (%)": 75.3}
{"Compound": "CC1=C2C(=C[C@@](C)(COCOCCCl)[C@@H]2O)C(=O)[C@](C)(O)C12CC2", "growth (%)": -30.3}
{"Compound": "O=c1cc(-c2ccccc2)oc2cc(OCCCNCc3ccccc3)cc(O)c12", "growth (%)": -69.7}

###

- System: SNB-75 CNS
- Measurement Notes: NCI-60 one-dose screen, 48 h
- Condition Description: 10 µM
About 83,000 compounds went through this panel and 20% of them were active in at least one assay; those are over-represented in the sample as a whole. The source made the active and inactive calls. The calls were made as follows: active = growth percent below 10; inactive = the rest.
Possible outcomes: 1.0 (active), 0.0 (inactive)

{"Compound": "COc1ccc(C(=O)/C=C/c2cc(C(F)(F)F)cc(C(F)(F)F)c2)cc1S(N)(=O)=O", "Qualitative Label": 0.0}
{"Compound": "O/N=C(\\CSc1nnc(-c2c[nH]c3ccccc23)n1-c1ccccc1)c1ccc(Br)cc1", "Qualitative Label": 1.0}
{"Compound": "C=C1CCC2C3(C)COC(c4cccc(F)c4)OC3CCC2(C)C1CC(O)C1=CCOC1=O (stereo not given)", "Qualitative Label": 0.0}
{"Compound": "COc1ccccc1C(=O)NNC(=O)CSc1nc2c(c(=O)[nH]1)CCCC2", "Qualitative Label": 0.0}
{"Compound": "O=c1cc(-c2ccccc2)oc2cc(OCCCNCc3ccccc3)cc(O)c12", "Qualitative Label": 0.0}
{"Compound": "Cn1cc(/C=N/Nc2cccc(Cl)n2)c2ccccc21", "Qualitative Label": 0.0}
{"Compound": "Cn1cc(-c2cc(N)n3nc(-c4c[nH]c5ccc(Br)cc45)cc3n2)c2cccnc21", "Qualitative Label": 1.0}
{"Compound": "O=C(Nc1ccccc1)Nc1nc2ccccc2s1", "Qualitative Label": 0.0}
{"Compound": "O=C1NC(=NC23CC4CC(CC(C4)C2)C3)N/C1=C\\c1ccc2ncccc2n1", "Qualitative Label": 1.0}
{"Compound": "CC(=O)Nc1ccc(-c2cn(-c3cccc(C(=O)Nc4ccc(Cl)c(C(F)(F)F)c4)c3)nn2)cn1", "Qualitative Label": 0.0}

###

- Test system: PC-3 prostate
- Measurement Notes: NCI-60 one-dose screen, 48 h
- Condition Description: 10 µM
This is part of a sample that, as a whole, favours compounds with a hit. Of some 83,000 tested, about 20% had one in any assay. The source made the active and inactive calls. Rule for the calls: active = growth percent below 10; inactive = the rest.
Possible outcomes: 1 (yes) for active, 0 (no) for inactive

{"Compound": "O=C(CNc1nc(-c2ccccc2)cs1)Nc1cccc(Cl)c1", "Study System": "PC-3 prostate", "Qualitative Label": "0 (no)"}
{"Compound": "O=C(Nc1cccc(-c2cn(-c3ccc4oc(=O)ccc4c3)nn2)c1)Nc1cc(C(F)(F)F)cc(C(F)(F)F)c1", "Study System": "PC-3 prostate", "Qualitative Label": "0 (no)"}
{"Compound": "Cc1ccc(/C=C/C(=O)c2ccc(S(=O)(=O)NCCNc3nc(Nc4ccc(F)cc4)nc(N(C)C)n3)cc2)cc1", "Study System": "PC-3 prostate", "Qualitative Label": "0 (no)"}
{"Compound": "COc1ccccc1[C@H]1C(C(=O)c2ccc(Cl)cc2)C2(N[C@@H]1c1ccccc1)C(=O)Nc1ccccc12 (stereo partly specified)", "Study System": "PC-3 prostate", "Qualitative Label": "1 (yes)"}
{"Compound": "O=C(NCCCCCCCCCC[P+](c1ccccc1)(c1ccccc1)c1ccccc1)c1ccc(-n2nc(-c3ccccc3O)nc2-c2ccccc2O)cc1", "Study System": "PC-3 prostate", "Qualitative Label": "1 (yes)"}
{"Compound": "Cc1ccc(C(=O)NNC(=O)CSc2nc3ccccc3c(=O)[nH]2)cc1", "Study System": "PC-3 prostate", "Qualitative Label": "0 (no)"}
{"Compound": "C=C1CCC2C3(C)COC(c4cccc(F)c4)OC3CCC2(C)C1CC(O)C1=CCOC1=O (stereo unspecified)", "Study System": "PC-3 prostate", "Qualitative Label": "0 (no)"}
{"Compound": "COc1cccc(-c2ccc(/C=N/NC(=O)c3[nH]c4ccc(Br)cc4c3-c3ccccc3)o2)c1", "Study System": "PC-3 prostate", "Qualitative Label": "0 (no)"}
{"Compound": "CCCn1c(=O)c2[nH]c(-c3ccc(OCc4nc5ccc(C(F)(F)F)cc5[nH]4)cc3)nc2n(CCC)c1=O", "Study System": "PC-3 prostate", "Qualitative Label": "0 (no)"}
{"Compound": "O=C(CNc1nc(-c2ccccc2)cs1)Nc1ccc([N+](=O)[O-])cc1Cl", "Study System": "PC-3 prostate", "Qualitative Label": "0 (no)"}
{"Compound": "O=C(CNc1nc(-c2ccccc2)cs1)Nc1ccc([N+](=O)[O-])cc1", "Study System": "PC-3 prostate", "Qualitative Label": "0 (no)"}
{"Compound": "COc1ccc(C(=O)Nc2sc3c(c2C#N)CCC(=O)C3)cc1C(F)(F)F", "Study System": "PC-3 prostate", "Qualitative Label": "1 (yes)"}
{"Compound": "Cc1ccc(-c2ccc(SCC(=O)Nc3ccc(Cl)c(C(F)(F)F)c3)nn2)cc1", "Study System": "PC-3 prostate", "Qualitative Label": "0 (no)"}
{"Compound": "Cc1ccc(C(=O)Nc2ccc(-n3c(C)nc4c(cnn4-c4ccccc4)c3=O)cc2)cc1", "Study System": "PC-3 prostate", "Qualitative Label": "0 (no)"}
{"Compound": "CN1CCN(c2ccc(C(=O)/C=C/c3ccc(OC(F)F)cc3)cc2)CC1", "Study System": "PC-3 prostate", "Qualitative Label": "0 (no)"}
{"Compound": "CC(C)C(=O)Nc1ccc(C(=O)NC(=S)Nc2ccc(C(=O)O)cc2)cc1", "Study System": "PC-3 prostate", "Qualitative Label": "0 (no)"}
{"Compound": "O=C(Cn1nc(-c2ccccc2)ccc1=O)NNC(=S)NC1CCCCC1", "Study System": "PC-3 prostate", "Qualitative Label": "0 (no)"}
{"Compound": "COc1ccsc1/C=N/NC(=O)c1[nH]c2ccc(Br)cc2c1-c1ccccc1", "Study System": "PC-3 prostate", "Qualitative Label": "1 (yes)"}
{"Compound": "CCCCSc1nc(Nc2ccc(/C(C)=N/NC(N)=S)cc2)c(C#N)c(-c2ccccc2)n1", "Study System": "PC-3 prostate", "Qualitative Label": "0 (no)"}
{"Compound": "COc1cc2c(cc1OC)CN(CCCCOc1cc(O)c3c(=O)cc(-c4ccccc4)oc3c1)CC2", "Study System": "PC-3 prostate", "Qualitative Label": "0 (no)"}
{"Compound": "O=C(Nc1cccc(C(F)(F)F)c1)c1cncc(C#Cc2cnc3cccnn23)c1", "Study System": "PC-3 prostate", "Qualitative Label": "0 (no)"}
{"Compound": "C/C(=C\\CSc1ccccc1C(=O)O)CCCC(C)CCCC(C)CCCC(C)C (stereo unspecified)", "Study System": "PC-3 prostate", "Qualitative Label": "0 (no)"}
{"Compound": "Cc1nc(Nc2nc(C)c3ccc(OCCN4CCOCC4)cc3n2)[nH]c(=O)c1C", "Study System": "PC-3 prostate", "Qualitative Label": "0 (no)"}
{"Compound": "Brc1ccc(/C=C/c2n(Cc3ccc4ccccc4c3)c3ccccc3[n+]2Cc2ccc3ccccc3c2)cc1", "Study System": "PC-3 prostate", "Qualitative Label": "1 (yes)"}
{"Compound": "COc1cc(NC(=O)CSc2nnc(-c3ccc4nc(-c5ccc(Cl)cc5)[nH]c4c3)o2)cc(OC)c1OC", "Study System": "PC-3 prostate", "Qualitative Label": "0 (no)"}
{"Compound": "COc1cc(/C=C/C(=O)c2cc(OC)c(OC)c(OC)c2)ccc1Oc1nc(Nc2ccc(F)cc2)nc(N(C)C)n1", "Study System": "PC-3 prostate", "Qualitative Label": "1 (yes)"}
{"Compound": "COc1cc(C2CC(c3ccc(C)cc3)=Nc3c(N)nc(N)nc3N2)ccc1Oc1nc(Nc2ccc(F)cc2)nc(N(C)C)n1 (stereo unspecified)", "Study System": "PC-3 prostate", "Qualitative Label": "0 (no)"}
{"Compound": "O=C1Nc2cc(Cl)ccc2/C1=C/c1ccc(OCc2ccc(Br)cc2F)cc1", "Study System": "PC-3 prostate", "Qualitative Label": "1 (yes)"}
{"Compound": "COc1cc2c(cc1OC)/C(=C\\c1sc(Nc3ccc(O)cc3)nc1O)C(C(=O)O)=N2", "Study System": "PC-3 prostate", "Qualitative Label": "0 (no)"}
{"Compound": "COc1ccccc1[C@H]1C(C(=O)c2ccc(Cl)cc2)C2(N[C@@H]1c1ccccc1)C(=O)Nc1ccc(Cl)cc12 (stereo partly specified)", "Study System": "PC-3 prostate", "Qualitative Label": "0 (no)"}
{"Compound": "CN(CCF)c1ccc(/C=C/C(=O)c2ccc(N)cc2O)cc1", "Study System": "PC-3 prostate", "Qualitative Label": "0 (no)"}
{"Compound": "COc1cccc(/C=C2\\N=C(C)N(CCc3ccc(S(N)(=O)=O)cc3)C2=O)c1", "Study System": "PC-3 prostate", "Qualitative Label": "0 (no)"}
{"Compound": "O=C(Nc1ccc(OCC(=O)c2ccccc2)cc1)Nc1ccc(Cl)c(C(F)(F)F)c1", "Study System": "PC-3 prostate", "Qualitative Label": "1 (yes)"}
{"Compound": "CC[C@]12C=CCN3CC[C@@]4(c5cc(C#CCNc6ccc(C)c(Nc7nccc(-c8cccnc8)n7)c6)c(OC)cc5N(C)[C@H]4[C@@](O)(C(=O)OC)[C@@H]1OC(C)=O)C32 (stereo partly specified)", "Study System": "PC-3 prostate", "Qualitative Label": "0 (no)"}
{"Compound": "CN(C)c1ccc(/C=C/C(=O)c2ccc(NC(=O)CN3C(=O)NC(C)(c4ccccc4)C3=O)cc2)cc1 (stereo unspecified)", "Study System": "PC-3 prostate", "Qualitative Label": "0 (no)"}
{"Compound": "O=c1[nH]c2ccccc2cc1CSc1ccc(Nc2nccc(-c3ccc4c(c3)OCO4)n2)cc1", "Study System": "PC-3 prostate", "Qualitative Label": "0 (no)"}
